Test system: UO-31
experiment summary: NCI tumour cell line growth inhibition, 48 h
Calls of active or inactive are those of the source. No stated cut-off is given here; in the data, active = GI50 up to about 1.1 µM and inactive = higher.
I'd appreciate it if you could supply GI50 values for the items below.

Recorded GI50, per entry:
>>> print(df.to_string())
                                   compound             reported
0  COC(=O)c1ccc2c(c1)CCN2C(=O)c1cc2c(cc1Br)OCO2   2.01 µM (inactive)
1  CSc1nc(NC2OC(COC(C)=O)C(OC(C)=O)C(OC(C)=O)C2OC(C)=O)c(/N=C(\C)C(C)=O)c(=O)[nH]1 (stereo not given)  > 100 µM (inactive)
2           O=Cc1c(C(=O)O)[nH]c(=O)[nH]c1=O  > 100 µM (inactive)
3  CC(=O)OCCn1c(Cc2ccc([N+](=O)[O-])cc2)nn(C(C)=O)c1=O  > 100 µM (inactive)

Turning now to a further compound:
Form field GI50, entry CCCc1ccc(/N=C\c2cc(OC)c(OC)c(OC)c2)cc1 : > 100 µM (inactive)

* * *

System: SF-539
experiment summary: NCI tumour cell line growth inhibition, 48 h
Activity calls are given as the source filed them. Cut-off read from the data, not from the text of the source: active = GI50 up to about 1.1 µM and inactive = higher.
I'd appreciate it if you could supply GI50 values for the items below.

compound	GI50
COc1ccc(C)cc1NC(=S)N/N=C/c1ccco1	27.6 µM (inactive)
Cc1cc(C(C)C)cc(=O)c(O)c1	> 100 µM (inactive)
Cc1nn(-c2ccccc2)c(C)c1/C=N/N=C1\SCC(=O)N1c1ccccc1	22.9 µM (inactive)
Clc1ccc(C2SCc3nc4ccccc4n32)cc1Cl (stereo not drawn)	17.1 µM (inactive)
CCOC(=O)[C@H]1Nc2c(cccc2[N+](=O)[O-])C2c3ccccc3CC21 (stereo partly drawn)	> 100 µM (inactive)
COC(=O)C1OC(O[C@H]2CC[C@]3(C)[C@H]4CC=C5[C@@H]6CC(C)(C)CC[C@]6(C(=O)OC6OCC(O)C(O)C6OC6OC(C)C(OC7OCC(O)C(O)C7O)C(OC7OCC(O)(CO)C7O)C6O)[C@H](O)C[C@@]5(C)[C@]4(C)CC[C@H]3C2(C)C)C(O)C(O)C1O (stereo partly drawn)	31.6 µM (inactive)

Items follow; give GI50 for each.
1. O=C(N/N=C/c1ccc(Cl)cc1)c1c(Cl)c(Cl)c(Cl)c(Cl)c1-c1nc2ccccc2[nH]1
2. Cc1ccccc1NC(=O)Cc1csc2[n+]1C(=O)/C(=C/c1ccc([N+](=O)[O-])cc1)S2

**Result**
> 100 µM (inactive)
29 µM (inactive)

* * *

System: LXFL 529
experiment summary: NCI tumour cell line growth inhibition, 48 h
The source made the active and inactive calls. Rule as the data show it: active = GI50 up to about 1.1 µM and inactive = higher.
property measured: GI50

Recorded GI50, per entry:
compound	GI50
O=C(c1ccccc1)n1cc(/C=C/[N+](=O)[O-])c2ccccc21	18.5 µM (inactive)
C=C1C(=O)OC2C1C(OC(=O)/C(C)=C\C)CC1(CO1)C1C(O)C=C(C)C21O (configuration not stated)	1.59 µM (inactive)

Items follow; give GI50 for each.
1. C[C@]12CCc3nn(-c4ccccc4)nc3C1CC[C@@H]1C2CC[C@]2(C)C(=O)CCC12 (some centres not stated)
2. Cc1nc(Nc2ccc(Cl)cc2)sc1C(=O)Nc1cccc2c(=O)[nH][nH]c(=O)c12
3. CCSC(=O)C1(C)OC2CCCCC2C1=O (configuration not stated)

**Result**
["> 100 µM (inactive)", "13.1 µM (inactive)", "> 100 µM (inactive)"]

Items follow; give GI50 for each.
1. CC1(C)CCc2cc3c(cc2O1)OC(C)(C)CC3=O
2. CCOC(=O)[C@H]1Nc2c(cccc2[N+](=O)[O-])C2c3ccccc3CC21 (some centres not stated)
3. COC(=O)c1sc(=NC(=S)N2CCCCC2)sc1C(=O)OC
4. CN1COc2c(n(C)c(=O)[nH]c2=O)C1
5. O=C(NO)C(=O)Nc1cc(Cl)ccc1Cl
6. CCOC(=O)/C([O-])=C(\C(=O)OCC)[n+]1c(C)n(C)c2ccccc21
7. CS(=O)(=O)OCC1=C(COS(C)(=O)=O)C(=O)c2c(O)ccc(O)c2C1=O

**Result**
["81.5 µM (inactive)", "> 100 µM (inactive)", "> 100 µM (inactive)", "> 100 µM (inactive)", "> 100 µM (inactive)", "> 100 µM (inactive)", "> 100 µM (inactive)"]
